# testedOn: recombinant human-GR (GR) (Homo sapiens, UniProt P04150)
# Construct: purchased PanVera
# Sequence (P04150 whole entry): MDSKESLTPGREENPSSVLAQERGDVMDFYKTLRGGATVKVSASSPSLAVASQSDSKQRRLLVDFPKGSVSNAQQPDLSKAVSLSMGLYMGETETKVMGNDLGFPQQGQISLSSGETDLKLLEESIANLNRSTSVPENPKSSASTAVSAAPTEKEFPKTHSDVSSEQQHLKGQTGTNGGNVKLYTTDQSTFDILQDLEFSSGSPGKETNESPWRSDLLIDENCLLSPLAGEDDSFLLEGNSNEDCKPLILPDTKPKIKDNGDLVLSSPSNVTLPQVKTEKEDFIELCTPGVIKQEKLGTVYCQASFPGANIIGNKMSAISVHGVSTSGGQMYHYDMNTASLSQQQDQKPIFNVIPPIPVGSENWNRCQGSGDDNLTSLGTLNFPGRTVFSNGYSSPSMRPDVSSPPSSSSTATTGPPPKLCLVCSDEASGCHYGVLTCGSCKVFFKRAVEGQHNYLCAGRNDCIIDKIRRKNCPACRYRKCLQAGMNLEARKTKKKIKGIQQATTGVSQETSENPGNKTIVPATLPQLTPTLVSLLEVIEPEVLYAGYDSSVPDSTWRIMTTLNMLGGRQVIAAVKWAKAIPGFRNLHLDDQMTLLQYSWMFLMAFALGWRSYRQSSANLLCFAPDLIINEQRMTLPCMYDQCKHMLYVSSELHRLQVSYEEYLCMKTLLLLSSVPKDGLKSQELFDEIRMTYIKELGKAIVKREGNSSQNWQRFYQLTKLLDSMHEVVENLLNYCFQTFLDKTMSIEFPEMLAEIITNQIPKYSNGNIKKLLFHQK
# assayComment: Glucocorticoid Receptor Competitor Assay kit (PanVera), fluorescence polarisation binding
# assayConditions: fluorescence polarisation competition with fluormone GS1 1 nM, GR 4 nM, 90 minutes room temperature
parameterMeasured: pEC50
Bear in mind: pEC50 is minus log10 of a mol/L concentration; give just that figure.

Name the reported pEC50 value associated with the compound CC#C[C@]1(O)CC[C@H]2[C@@H]3CCC4=CC(=O)CCC4=C3[C@@H](c3ccc4c(c3)OCO4)C[C@@]21C
8.00

All values here come from patent US8133885B2.
